Biological target: T1, rat calcitonin receptor (rat, UniProt P32214 25-516)
T1 construct: whole, on cells; membranes of transiently transfected BHK tk'ts 13 cells (Assay VIII); also called rCTR; rat calcitonin (a) receptor
T1 sequence (looked up): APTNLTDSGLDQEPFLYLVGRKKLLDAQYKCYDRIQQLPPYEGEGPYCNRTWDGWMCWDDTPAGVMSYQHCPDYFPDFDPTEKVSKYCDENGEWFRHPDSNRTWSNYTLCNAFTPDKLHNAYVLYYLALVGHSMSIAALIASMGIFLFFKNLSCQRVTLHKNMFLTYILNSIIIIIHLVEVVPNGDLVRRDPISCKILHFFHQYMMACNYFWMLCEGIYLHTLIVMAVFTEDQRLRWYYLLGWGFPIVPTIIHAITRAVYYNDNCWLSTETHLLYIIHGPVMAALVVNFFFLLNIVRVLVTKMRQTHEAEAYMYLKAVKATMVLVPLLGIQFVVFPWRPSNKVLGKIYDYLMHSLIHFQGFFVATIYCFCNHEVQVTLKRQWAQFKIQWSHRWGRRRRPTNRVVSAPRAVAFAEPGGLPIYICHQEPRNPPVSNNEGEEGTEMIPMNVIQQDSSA
Experiment: SPA competition with 125I-calcitonin, membranes of BHK cells with rat calcitonin receptor (Assay VIII)
pIC50: −log10 of the molar value. Numbered stars: 1 amine (or outer) side, 2 acyl side, 3 side chain; on linkers, the order of the positions; unused ones are H or OH. Bridge positions count the residues as written; N and C are the ends. Side chains are listed from the residue outwards. Ends that are not written are not given here. * marks the point of attachment. C20 diacid = O=C(O)CCCCCCCCCCCCCCCCCCC(=O)*; γGlu = O=C(O)[C@H](CCC(=O)[*:2])N[*:1]; AEEA = NCCOCCOCC(=O)O
OBSERVATION TYPE: pIC50

Answered cases to consult:
[
  {
    "BINDER": "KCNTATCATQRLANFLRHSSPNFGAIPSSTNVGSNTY (C20 diacid-gGlu on the alpha amino group of the N-terminal residue (Lys 1); disulfide bridge between the two Cys residues; C-terminal amide, analogue of human amylin; also called compound 21) [N^α1-[(4S)-4-carboxy-4-(19-carboxynonadecanoylamino)butanoyl]-[Arg17,Pro21,Pro27]-h-amylin]",
    "pIC50": 7.55
  },
  {
    "BINDER": "K(C20 diacid)CNTATCATQRLANFLRHSSPNFGAIPSSTNVGSNTY-NH2 (disulfide 2-7 (inferred), analogue of human amylin; also called compound 42) [N^ε1-19-carboxynonadecanoyl-[Arg17,Pro21,Pro27]-h-amylin]",
    "pIC50": 7.81
  },
  {
    "BINDER": "{C20 diacid-γGlu}-KCNTATCATQRLAEFLRHSSPNFGAPLSSTNVGSNTY-NH2 (disulfide 2-7 (inferred), analogue of human amylin; also called compound 7) [N^α1-[(4S)-4-carboxy-4-(19-carboxynonadecanoylamino)butanoyl]-[Glu14,Arg17,Pro21,Pro26]-h-amylin]",
    "pIC50": 7.33
  }
]

[P] K([AEEA-γGlu-C20 diacid])CNTATCATQRLANFLRHSSPNFGAIPSSTNVGPNTY-NH2 (disulfide 2-7 (inferred), analogue of human amylin; also called compound 50)
[Q] {C20 diacid-γGlu}-GRCNTATCATQRLANFLRHSSPNFGAIPSSTNVGSHTY-NH2 (disulfide 3-8 (inferred), analogue of human amylin extended by Gly at the N-terminus; also called compound 47)
INPUT: Which value of pIC50 is smaller, the one for P or the one for Q ? Write down the label attached to your selection.
OUTPUT: Q
(Q: 7.77, P: 8.25)
